# target or system: T1, human monomeric MuSK FLAG streptavidin (in house produced, batch 27-6-2019) (human, UniProt O15146 24-495)
# T1 construct: also called full length MuSK; not shown: FLAG and streptavidin tags
# T1 sequence: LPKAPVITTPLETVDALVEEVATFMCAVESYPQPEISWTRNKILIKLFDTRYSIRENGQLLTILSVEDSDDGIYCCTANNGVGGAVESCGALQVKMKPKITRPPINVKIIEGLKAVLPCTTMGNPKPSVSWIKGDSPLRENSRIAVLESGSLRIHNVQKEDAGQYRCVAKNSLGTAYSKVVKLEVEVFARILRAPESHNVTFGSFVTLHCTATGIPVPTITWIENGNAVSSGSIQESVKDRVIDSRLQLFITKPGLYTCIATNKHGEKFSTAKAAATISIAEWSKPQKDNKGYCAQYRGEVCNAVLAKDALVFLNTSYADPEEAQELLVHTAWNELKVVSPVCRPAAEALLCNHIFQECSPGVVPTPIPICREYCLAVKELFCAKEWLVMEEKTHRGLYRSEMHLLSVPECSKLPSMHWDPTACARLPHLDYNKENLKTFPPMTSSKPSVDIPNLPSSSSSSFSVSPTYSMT
# measurement protocol: epitope binning ELISA (coated anti-MuSK Fab, MuSK, IgG, anti-Fc HRP); competitor: 3D9b
observed property: OD 450 nm
In your response, put the unit directly after the numeric value.

query: Data request, read-out OD 450 nm, for 3B5 (antibody, V domains shown, also called 3B5wt) VH: QVQLVQSGAVVAKPGASVQVSCKTSGYTFTGQYLHWVRQAPGQGLEWIGWINPSSGVTKFAEKFEGRATMTRDTSITTAYIDLRSLRSDDTATYYCATLSLGVYYVGMVAWGQGTLVTVSS VL: ELTQPPSVSVSPGQTATITCSGDGLAQQHVYWFQQRPGQAPLLIIYKDIERPSGIPERFSGSSSGTTAMLTISGVQAEDEADYYCQSGDRTATSVLFGGGTKMTVLG
result: 1.99 OD

This collection of values is drawn from patent US20230110188A1.
